Target: BRG-1 (Homo sapiens, UniProt P51532)
Construct: made in house; host or cells: High Five insect cells
Sequence (P51532 whole entry): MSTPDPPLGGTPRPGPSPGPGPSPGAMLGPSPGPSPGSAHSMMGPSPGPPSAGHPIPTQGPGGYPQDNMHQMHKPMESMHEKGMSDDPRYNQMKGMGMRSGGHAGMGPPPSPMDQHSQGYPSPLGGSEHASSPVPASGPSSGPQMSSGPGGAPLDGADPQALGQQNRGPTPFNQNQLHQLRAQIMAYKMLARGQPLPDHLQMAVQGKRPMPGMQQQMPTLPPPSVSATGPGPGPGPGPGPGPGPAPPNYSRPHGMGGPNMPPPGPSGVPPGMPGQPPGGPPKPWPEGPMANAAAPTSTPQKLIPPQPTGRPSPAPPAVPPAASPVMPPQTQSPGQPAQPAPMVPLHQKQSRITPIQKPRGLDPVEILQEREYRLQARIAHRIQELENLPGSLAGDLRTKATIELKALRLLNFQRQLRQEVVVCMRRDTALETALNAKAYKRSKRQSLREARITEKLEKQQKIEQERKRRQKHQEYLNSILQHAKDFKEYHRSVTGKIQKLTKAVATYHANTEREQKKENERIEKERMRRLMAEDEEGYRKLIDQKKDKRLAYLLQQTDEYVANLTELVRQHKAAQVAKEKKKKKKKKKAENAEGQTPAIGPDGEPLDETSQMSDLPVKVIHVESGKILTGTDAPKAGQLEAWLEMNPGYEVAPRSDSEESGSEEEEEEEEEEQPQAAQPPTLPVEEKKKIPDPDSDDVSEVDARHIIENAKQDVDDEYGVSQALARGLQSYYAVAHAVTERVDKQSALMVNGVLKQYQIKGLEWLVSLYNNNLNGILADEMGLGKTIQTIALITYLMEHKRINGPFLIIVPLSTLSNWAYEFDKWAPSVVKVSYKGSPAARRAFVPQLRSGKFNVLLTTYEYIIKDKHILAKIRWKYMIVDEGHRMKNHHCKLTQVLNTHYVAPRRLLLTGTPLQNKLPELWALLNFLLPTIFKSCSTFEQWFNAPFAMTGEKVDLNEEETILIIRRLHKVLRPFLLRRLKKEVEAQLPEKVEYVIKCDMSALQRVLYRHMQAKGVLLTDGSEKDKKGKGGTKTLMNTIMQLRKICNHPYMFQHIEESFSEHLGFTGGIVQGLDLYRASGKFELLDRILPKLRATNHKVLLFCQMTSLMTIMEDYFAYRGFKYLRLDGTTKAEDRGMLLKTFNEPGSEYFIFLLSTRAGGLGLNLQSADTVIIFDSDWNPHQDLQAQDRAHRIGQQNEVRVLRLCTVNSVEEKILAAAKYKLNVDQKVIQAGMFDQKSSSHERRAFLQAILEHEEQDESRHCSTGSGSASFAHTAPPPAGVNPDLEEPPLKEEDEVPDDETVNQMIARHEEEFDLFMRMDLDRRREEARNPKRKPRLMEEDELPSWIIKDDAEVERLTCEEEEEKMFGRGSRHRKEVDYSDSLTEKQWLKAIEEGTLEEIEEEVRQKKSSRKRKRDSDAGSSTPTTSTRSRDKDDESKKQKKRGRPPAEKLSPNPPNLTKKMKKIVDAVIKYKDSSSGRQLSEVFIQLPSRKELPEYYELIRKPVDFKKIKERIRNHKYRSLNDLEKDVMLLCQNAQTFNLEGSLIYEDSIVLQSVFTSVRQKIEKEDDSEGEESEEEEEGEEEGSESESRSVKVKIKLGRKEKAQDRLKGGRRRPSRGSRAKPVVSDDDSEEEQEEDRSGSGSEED
Assay: ATPase catalytic activity of BRG-1, ADP-Glo in vitro biochemical assay
Settings: ATPase catalytic activity, ADP-Glo; 30 nM BRG-1, 400 μM ATP; read-out: BRG1 IC50
assay readout: IC50 (nM)

[[record]]
smiles_input = "C[C@H]1COCc2ccc(C(=O)NCc3cc4nc(-c5cccc(C6CC6)n5)ccc4nn3)cc2S1(=O)=O"
value_measured = 491

[[record]]
smiles_input = "O=C(NCc1cc2nc(N3CCCc4ccc([C@@H]5CC5(F)F)nc43)ccc2cn1)c1ccc2c(c1)S(=O)(=O)CCOC2"
value_measured = 882

[[record]]
smiles_input = "O=C(NCc1cc2nc(N3CCCc4c(F)ccnc43)ccc2cn1)c1ccc2c(c1)S(=O)(=O)CCOC2"
value_measured = 250

[[record]]
smiles_input = "CO[C@H]1C[C@H]1N(C)c1cccc(-c2ccc3cnc(CNC(=O)c4ccc5c(c4)S(=O)(=O)[C@@H](C)COC5)cc3n2)n1"
value_measured = 324


Data origin, for the record: patent US20230416248A1
